# Assay Target: Metabotropic glutamate receptor 8 (Rattus norvegicus)
# Test Method Notes: mGluR8 Gi/Go-coupled signaling modulation – cell-based, rat, thallium flux, HTS, primary screen (AID 488969)
# Condition Set: HEK293 rat mGluR8, GIRK thallium flux, FluoZin2; at 10 µM; stronger effect = higher value; submaximal glutamate (EC20) added with thallium
Whole data set: some 110,000 compounds, median “z-score” near -0.1, cut for the highest 2% near 2. Many of the other results were omitted from the sample, so the highest values are more common in it than they were.
z-score reference
Reported Metric: z-score

Compound	Result
Cc1cccc(NC(=O)C2CCCN2S(=O)(=O)c2cccc3cccnc23)c1 (centres undefined)	0.22
Cc1ccc(CNC(=S)Nc2ccc(C)c([N+](=O)[O-])c2)cc1	0.255
C=CCn1c(-c2ccc(OC)cc2)csc1=Nc1c(C)n(C)n(-c2ccccc2)c1=O	-0.422
Cc1ccccc1CSCc1nc2ccccc2[nH]1	-0.127
Cc1ccc(NC(=O)C2CCCN2S(=O)(=O)c2cccc3cccnc23)cc1F (centres undefined)	2.9
CCOC(=O)N1CCC(NCCNC(=O)c2ccccc2)CC1	0.292
CCN(CC)CC(O)COCCC12CC3CC(CC(C3)C1)C2 (centres undefined)	3.04
O=C(CNC(=S)NC(=O)c1ccc(F)cc1)c1ccccc1	-0.0791
OC(COCCC12CC3CC(CC(C3)C1)C2)CN1CCCCC1 (centres undefined)	-0.152
O=[N+]([O-])c1ccc(NC(=S)NCCc2ccc(Cl)cc2)cc1	0.129
Cc1ccc(NC(=S)NCc2ccccc2)cc1[N+](=O)[O-]	3.51
O=[N+]([O-])c1ccc(NC(=S)NCCc2ccc(F)cc2)cc1	1.65
CCCCCCCCSc1n[nH]c(N)n1	0.0327
CC(=O)c1cccc(NC(=O)C2CCCN2S(=O)(=O)c2cccc3cccnc23)c1 (centres undefined)	4.14
CC1=NN(C(N)=S)C(=O)C1N=Nc1ccc(C)cc1C (centres undefined)	13.2
C/C(=N\NC(=O)c1ccc(Cl)c(Cl)c1)c1cccc(NC(=O)C(C)C)c1	0.0284
CC1=NN(c2ccccc2)C(=O)C1N=Nc1ccccc1 (centres undefined)	0.244
CS(=O)(=O)N(CC(=O)NCCSc1ccccc1)c1ccc2c(c1)OCO2	1.46
O=C(Nc1cccc(F)c1)C1CCCN1S(=O)(=O)c1cccc2cccnc12 (centres undefined)	-0.182

----------
# Assay Target: Metabotropic glutamate receptor 8 (Rattus norvegicus) (UniProt P70579)
# Sequence (P70579 whole entry, looked up): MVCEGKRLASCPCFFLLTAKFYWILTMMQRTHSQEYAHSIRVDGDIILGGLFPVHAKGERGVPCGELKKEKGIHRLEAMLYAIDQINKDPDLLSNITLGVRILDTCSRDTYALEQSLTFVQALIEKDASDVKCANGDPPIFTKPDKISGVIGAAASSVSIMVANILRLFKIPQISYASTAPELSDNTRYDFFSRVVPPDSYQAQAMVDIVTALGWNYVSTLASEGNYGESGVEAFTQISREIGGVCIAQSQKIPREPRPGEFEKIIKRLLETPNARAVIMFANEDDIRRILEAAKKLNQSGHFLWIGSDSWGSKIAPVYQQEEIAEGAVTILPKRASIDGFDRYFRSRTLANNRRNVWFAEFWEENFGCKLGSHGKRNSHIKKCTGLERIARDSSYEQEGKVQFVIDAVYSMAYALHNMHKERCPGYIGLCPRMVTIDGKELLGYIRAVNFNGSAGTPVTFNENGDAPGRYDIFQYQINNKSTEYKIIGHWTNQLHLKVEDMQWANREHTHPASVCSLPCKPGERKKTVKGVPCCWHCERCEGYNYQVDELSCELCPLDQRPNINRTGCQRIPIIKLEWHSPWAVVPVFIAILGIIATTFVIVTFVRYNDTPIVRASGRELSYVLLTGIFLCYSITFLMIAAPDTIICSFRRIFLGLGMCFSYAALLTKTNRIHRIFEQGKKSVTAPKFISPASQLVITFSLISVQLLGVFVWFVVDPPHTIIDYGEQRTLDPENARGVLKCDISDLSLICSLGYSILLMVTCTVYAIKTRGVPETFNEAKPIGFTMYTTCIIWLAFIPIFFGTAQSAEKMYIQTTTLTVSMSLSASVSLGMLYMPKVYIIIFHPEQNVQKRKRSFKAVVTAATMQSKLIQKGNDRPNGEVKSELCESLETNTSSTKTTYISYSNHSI
# Test Method Notes: mGluR8 Gi/Go-coupled signaling modulation – cell-based, rat, thallium flux, HTS, primary screen (AID 488969)
# Condition Set: HEK293 rat mGluR8, GIRK (G protein-gated inwardly rectifying potassium channel) thallium flux, FluoZin2; at 10 µM; stronger effect = higher value; submaximal glutamate (EC20) added with thallium
In all, about 110,000 compounds were measured (“z-score”: median about -0.1, highest 2% from about 2 on). The entries come from a sample that favours the highest values as a whole.
Values of z-score greater than or equal to 3 map to True; values below map to False.

Query Smiles	Discrete Label
CCOC(=O)c1sc(C)c(C(=O)NC2CCCCC2)c1N	True
COC(=O)c1cc(OC)c(OC)cc1NC(=O)c1cc(-c2ccccc2)nc2ccccc12	False
CCOC(=O)c1[nH]c(C)c(C(=O)NC2CCCC2)c1C	False
COc1ccc2cc(Br)ccc2c1CC(=O)NC1CC(C)(C)NC(C)(C)C1	True
N#C/C(=C/c1ccc(OCc2ccccc2)cc1)C(=O)NC1CCCCC1	False
